assay: folding enthalpy; higher = less favourable; fluorescence melt of hairpins on a sequencing array, two-state fit; conditions: sodium 0.088 M
folding enthalpy for assorted sequences
Quick reminder: number only, in kcal/mol, skip the unit.

RESIDUE CODES | MEASURED QUANTITY | UNITS LABEL | RECORDED VALUE
GTGGTCGAAAGACTTCAC ((((((....)))..))) | folding enthalpy | kcal/mol | -15.2
GGGTCCTCGAAAGAGCCC (((..(((....)))))) | folding enthalpy | kcal/mol | -15.3
GCAAGAGCGAAAGCTTGC (((..(((....)))))) | folding enthalpy | kcal/mol | -22.8
GGTTTGGGAAACCAAACC (((((((....))))))) | folding enthalpy | kcal/mol | -40.3
CATGTGAAAACATG (((((....))))) | folding enthalpy | kcal/mol | -23.3

Consider the record given below.
Fill in folding enthalpy for record GCTTACGAAAGTATTAGC ((((((....)))..)))
-23.9
